Data provenance is a melting point compilation (Tetko et al.; mined from patent text by program, amines drawn as free bases though some values may be those of a salt).

Below is a list of entries, each paired with its recorded melting point value.

Consider the following illustrative entries.
Cn1nnnc1SCCCSc1nnnn1C : 142 to 144 °C
N#Cc1cccc(-c2ccc3cc[nH]c(=O)c3c2)c1 : > 300 °C
CCN1CCC/C1=C\c1nc(-c2ccc(F)cc2)c(-c2ccncc2)n1CCCc1ccccc1 : 127 to 128 °C
CCCc1nc(C(=O)C(C)C)c(C#N)n1Cc1ccc(-c2ccccc2-c2nnnn2C(c2ccccc2)(c2ccccc2)c2ccccc2)cc1 : 133 to 134 °C
CC(C)CCN1C(=O)C(NC(=O)Nc2cccc(-c3nnn[nH]3)c2)C(=O)N(c2ccccc2)c2ccccc21 (centres undefined) : 220 to 222 °C
O=C(Cl)c1cc([N+](=O)[O-])c(Cl)c([N+](=O)[O-])c1 : 55 to 57 °C

Can you look up the measured melting point of CC(c1cc(F)ccc1O)c1cc(Cl)cc(Cl)c1O (centres undefined) for me?
150 °C

----------
Entries and their melting point

Known melting point results, listed for orientation:
O=C(OCc1ccccc1)C(CO)N(C(=O)OCc1ccccc1)C(=O)c1ccccc1 (stereo unspecified) : 94 to 95 °C
C#CCOc1ccc2c(c1)c(-c1ccc(C(C)C)cc1)nc(=O)n2Cc1cccnc1O : 121 to 123 °C
COc1ccc(CN2C(=O)C(c3cc4c(C)noc4cc3O)c3ccccc32)cc1 (stereo unspecified) : 195 to 197 °C
O=C(O)c1cncn1C(c1ccccc1)C1CCCCC1 (stereo unspecified) : 250 °C
O=C(c1ccc(OCc2ccnc3ccccc23)cc1)[NH+]([O-])C1CCN(Cc2ccccc2)CC1 (stereo unspecified) : 171 to 173 °C

# lookup: melting point of Oc1cc(O)nc(-c2ccc(Cl)cc2)n1
333 °C

May I ask what melting point has been recorded for COc1ccc(-c2ccc3cc(C(=O)O)ccc3c2)cc1C12CC3CC(CC(C3)C1)C2 ?
321 °C

Would you kindly share the measured melting point for CCNC(=O)n1nc(Oc2ncc(C(F)(F)F)cc2Cl)c(C)c1C ?
124 to 125 °C

So what's the measured melting point for this one? CCOC(=O)c1ccc(NN2CN(Nc3ccc(C(=O)OCC)cc3)CN(Nc3ccc(C(=O)OCC)cc3)C2)cc1
218 to 223 °C

Reported melting point for COc1cc(Cl)c(C=O)c(Cl)c1 : what is it?
107 to 109 °C

Bench note: what melting point did CCc1cc(CC(=O)O)ccc1OCc1ccc2ccccc2n1 show?
144 °C

I have this compound here, CCCCN(CCCC)C(=O)CC1(c2ccc(OCOC)cc2)NCC(c2ccc3c(c2)OCO3)C1C(=O)O (stereo unspecified) , and I need its recorded melting point.
48 to 49 °C

Field request: melting point | item: CCOc1ccccc1C(=O)Nc1ccc(C(=O)N2CCC(F)(F)/C(=C\C(=O)N(C)C)c3ccccc32)cc1
195 to 198 °C

Which value of melting point has been reported for Nc1ccc(Oc2c(Cl)cc(C(F)(F)F)cc2Cl)cc1S(=O)(=O)c1cc[nH]n1 in the records?
232 °C

Requested read-out: melting point. Entry: COC=C(C(=O)OC)C1=C(C=Cc2ccccc2)CCC1
107 °C

Item under review: CCOc1ccc2[nH]c3c(c2c1)C[C@@](C)(C(=O)OC)N[C@@H]3c1cccc(O)c1 (racemic) . Reported melting point?
173 to 175 °C

Item under review: C[Si](O)(Cn1cncn1)c1ccc(-c2ccccc2)cc1 (stereo unspecified) . Reported melting point?
97 to 99 °C

// lookup melting point for CCOc1nccc(-c2c(-c3ccc(F)cc3)ncn2[C@H]2CC[C@H](O)CC2)n1
184 to 186 °C

So what does the record say about melting point for NC(=O)C[C@H](NC(=O)c1ccccn1)C(=O)O ?
171 to 172 °C

I would be grateful if you could share the reported melting point for Cn1nnnc1SCCCC(=O)c1ccc2ccccc2c1 .
118 to 120 °C

// melting point lookup, key: CC(C)(C)OC(=O)NCc1ccc(N)cc1
74.4 °C
